System: HIV-1 infection of TZM-bl cells
Assay: HIV-1 infectivity enhancement assay, β-galactosidase luminescence
Assay type: cell-based
Conditions: Log10 of infection relative to EF-C; all peptides of FigS16
Form field: Log10 of Rel to EFC (Feb2021) (one value per entry).
Hey, just send me the number, nothing else.

Consider the following illustrative entries.
>>> obs_value("CKIKQIINMWQ")
0.09
>>> obs_value("QCKFKFQFNMWQ")
-0.21
>>> obs_value("CKFKQFFNMWQ")
-0.21
>>> obs_value("RGDSGGGGGGKIKIQIC")
-0.06
>>> obs_value("CKIKIQIII")
-0.01

Now for a further substance.
// query Give recorded Log10 of Rel to EFC (Feb2021) with HIV-1 infection of TZM-bl cells for the following substance: `KIKIQIC`
// result -0.22

* * *

Assay: Turbidity, derived count rate of scattered light
Type: physicochemical
Details: log10 of derived count rate of scattered light, Figure 7B
Form field: Log10 Count Rate (one value per entry).
Hey, just send me the number, nothing else.

// query Which Log10 Count Rate is listed for RQGNINIVA [reference compound] ?
// result 1.551

// query Ok, now GQTVTK [reference compound]
// result 1.536

// query Ok, now GAITIG-NH2 [reference compound]
// result 1.474

// query Ok, now VQIVYK [reference compound]
// result 1.414

// query Ok, now MKVIFLKDVKG [reference compound]
// result 2.137

// query Ok, now RATVYV [reference compound]
// result 1.621

// query Ok, now IIIQGK [reference compound]
// result 0.9808

// query Ok, now GNNQQNY [reference compound]
// result 1.572

* * *

Assay: Zeta-potential measurement
Format: physicochemical
Form field: Zeta-Pot. (one value per entry).
Hey, just send me the number, nothing else.

>>> obs_value("KVKVKVQV")
-3.41

// query Which Zeta-Pot. is listed for `CKFKFQFNMWQ` ?
// result 17.03

// query Ok, now `PPFHPPPFHP`
// result -15.8

// query Ok, now `RGDKIRGDKI`
// result -13.57

// query Ok, now `CRFRVPF`
// result 4.413

// query Ok, now `HRRHFRHKITKKK`
// result -9.223

// query Ok, now `RPRGLLLGNLR`
// result -8.15

// query Ok, now `HIHIQIC`
// result -3.687

// query Ok, now `KFKQFFINMWQ`
// result 7.99

// query Ok, now `NMWQKIKQII`
// result -0.213

// query Ok, now `KIKIQINMWQ`
// result 14.87

// query Ok, now `KNERIKNERI`
// result -16

// query Ok, now `KFKFQFNM`
// result 13.9

// query Ok, now `QCKIKQII`
// result 11

// query Ok, now `QCKIKIQINM`
// result 11.37

// query Ok, now `NMWQKFKFQF`
// result 9.56

// query Ok, now `KFKQFFNMWQ`
// result -3.43

// query Ok, now `MKFKFQF`
// result -3.133

// query Ok, now `KKFQKKFQ`
// result -9.19

// query Ok, now `KFKFQFN`
// result 12.7

* * *

Test: Zeta-potential measurement
Format: physicochemical
Details: zeta potential of peptide; Fig S15 source data
Form field: Zeta-pot. / mV (one value per entry).
Write it as a number; the unit mV goes unstated.

>>> obs_value("IKVAVKIKIQINM [TM74]")
14.5

// query Which Zeta-pot. / mV is listed for HHHHKIKIQINMYYYY [TM16] ?
// result 7.807

// query Ok, now KIKIQIII [TG7]
// result 19.8

// query Ok, now RGDKIKIQINM [MG8a / CN17]
// result 16.43

// query Ok, now KIKIQINMWWQ [VH11]
// result 11.8

// query Ok, now KIRGKFEKED [CN30]
// result -12.7

// query Ok, now QCKFKFQFNM [CK8]
// result 15.7

// query Ok, now CKFKQFFNM [CK14]
// result 15.2

// query Ok, now RPRGLLLGNLR [CN20]
// result -8.15

// query Ok, now CRFRVPF [CN8]
// result 4.413

* * *

Assay: Turbidity, derived count rate of scattered light
Assay type: physicochemical
Conditions: logarithm of count rate in kcps
Form field: Log10 Count Rate (one value per entry).
Hey, just send me the number, nothing else.

>>> obs_value("CQFQFQF")
3.899
>>> obs_value("KCQCQCQ")
4.183
>>> obs_value("HIHIQIC")
2.416
>>> obs_value("RGDSGGGGGGKIKIQIC")
4.018
>>> obs_value("KIKIQIC")
2.992

// query Which Log10 Count Rate is listed for `RIRFHIW` ?
// result 1.093

// query Ok, now `KAKLTCT`
// result 1.225

// query Ok, now `CKFKFQFNM`
// result 3.347

// query Ok, now `KIKIWIW`
// result 2.784

// query Ok, now `CKWKWQW`
// result 3.876

* * *

Form field: ThT Cat, (one value per entry).
Format: physicochemical
Settings: ThT category; 1 if Rel. ThT >2

Consider the following illustrative entries.
>>> obs_value("RGEKIKIQINM")
"1 (ThT. Cat is 1, if Rel. ThT >2)"
>>> obs_value("RLRLTLC")
"0 (ThT-inactive (N-Fold <2))"
>>> obs_value("KFKQFFNMWQ")
"0 (ThT-inactive (N-Fold <2))"

// query Which ThT Cat, is listed for `EIKIQINM` ?
// result 1 (ThT. Cat is 1, if Rel. ThT >2)

// query Ok, now `KYKGAIIGNIK`
// result 0 (ThT-inactive (N-Fold <2))

// query Ok, now `CKIKIQINMWQ`
// result 1 (ThT. Cat is 1, if Rel. ThT >2)

// query Ok, now `KLKLQLL`
// result 0 (ThT-inactive (N-Fold <2))

// query Ok, now `QCKFKQFFNMWQ`
// result 1 (ThT. Cat is 1, if Rel. ThT >2)

// query Ok, now `KFKFQFNMW`
// result 0 (ThT-inactive (N-Fold <2))

// query Ok, now `KIKQIINM`
// result 0 (ThT-inactive (N-Fold <2))

// query Ok, now `CKWKWQW`
// result 0 (ThT-inactive (N-Fold <2))

// query Ok, now `CKAKAQA`
// result 0 (ThT-inactive (N-Fold <2))

// query Ok, now `KFKFQFNMWQ`
// result 1 (ThT. Cat is 1, if Rel. ThT >2)

// query Ok, now `HLHLPLL`
// result 0 (ThT-inactive (N-Fold <2))

* * *

Assay type: physicochemical
Settings: Fig S10 panel E
Procedure: 4 µL of 1 mg/mL peptide fibrils solution is added to a 20 µL, 50 µM ThT–solution in PBS. The mixture is incubated for 15 min at RT to allow binding of ThT dye with β–sheet rich structures. […] Fluorescence spectra were recorded on an Infinite® M1000 PRO microplate reader (Tecan) at λem = 488 nm upon excitation at λex = 440 nm with 10 nm bandwidths and multiple reads per well (3×3). […] Furthermore, fluorescence microscopy was conducted by staining 1 µL preformed fibrils (1 mg/mL) with 9 µL ThT (50 µM). […]
Form field: ThT Cat. (one value per entry).

>>> obs_value("EIEIQINM")
"0 (ThT-inactive (N-Fold <2))"
>>> obs_value("HGDKCHGDKC")
"0 (ThT-inactive (N-Fold <2))"
>>> obs_value("CKFKQFFNMWQ")
"1 (ThT. Cat is 1, if Rel. ThT >2)"
>>> obs_value("KFKFQFFF")
"1 (ThT. Cat is 1, if Rel. ThT >2)"
>>> obs_value("QCKAKAQANM")
"0 (ThT-inactive (N-Fold <2))"

// query Which ThT Cat. is listed for `RGEKIKIQINM` ?
// result 1 (ThT. Cat is 1, if Rel. ThT >2)

// query Ok, now `RGDKIKIQINM`
// result 1 (ThT. Cat is 1, if Rel. ThT >2)

* * *

Assay type: physicochemical
Conditions: ThT-active if fluorescence at least twice the control
Description: 4 µL of 1 mg/mL peptide fibrils solution is added to a 20 µL, 50 µM ThT–solution in PBS. The mixture is incubated for 15 min at RT to allow binding of ThT dye with β–sheet rich structures. […] Fluorescence spectra were recorded on an Infinite® M1000 PRO microplate reader (Tecan) at λem = 488 nm upon excitation at λex = 440 nm with 10 nm bandwidths and multiple reads per well (3×3). […] Furthermore, fluorescence microscopy was conducted by staining 1 µL preformed fibrils (1 mg/mL) with 9 µL ThT (50 µM). […]
ASSAY READOUT: ThT Cat. / ThT-Fluorescence (categorical)

Consider the following illustrative entries.
>>> obs_value("CKIKIQINMWQ")
"1 (ThT. Cat is 1, if Rel. ThT >2)"
>>> obs_value("KIRGKFEKED")
"1 (ThT. Cat is 1, if Rel. ThT >2)"
>>> obs_value("QCKFKFQFNM")
"1 (ThT. Cat is 1, if Rel. ThT >2)"

// query Which ThT Cat. / ThT-Fluorescence (categorical) is listed for `CKFKFQFNMWQ` ?
// result 1 (ThT. Cat is 1, if Rel. ThT >2)

// query Ok, now QCKIKQIINMWQ [reference compound]
// result 1 (ThT. Cat is 1, if Rel. ThT >2)

// query Ok, now `CKAKAQANMWQ`
// result 0 (ThT-inactive (N-Fold <2))

// query Ok, now `QCKIKQII`
// result 1 (ThT. Cat is 1, if Rel. ThT >2)

// query Ok, now `HHHHEIEIEIEI`
// result 1 (ThT. Cat is 1, if Rel. ThT >2)

// query Ok, now `KFKQFFINMWQ`
// result 0 (ThT-inactive (N-Fold <2))

// query Ok, now `KIKIQIRGD`
// result 1 (ThT. Cat is 1, if Rel. ThT >2)

// query Ok, now `CKFKFPF`
// result 0 (ThT-inactive (N-Fold <2))

// query Ok, now `KLKLQLL`
// result 0 (ThT-inactive (N-Fold <2))
